All figures here come from patent US9175045B2.

Each record here notes measured Kd.
subject_of_test: T1, human serum proteins (binding ascribed fully to human serum albumin, HSA) (human, UniProt P02768 25-609)
T1 construct: No purified HSA was used
measurement_protocol: apparent Kd* by EC50 shift analysis: Jurkat viability EC50 at 0, 2 and 10% human serum, fit assuming 1:1 binding to HSA
Bridge positions count the residues as written; N and C are the ends. Square brackets hold non-standard residues; d marks the D form. * marks the point of attachment. S5 = C=CCCC[C@](C)(N)C(=O)O; Aib = CC(C)(N)C(=O)O; Propionyl = CCC(=O)*
Your answer should be a plain number; it is taken to be in µM.

Q) Which Kd reading was recorded for the binder Ac-IWIAQALR[S5]IGN[S5]FNAYYARR-NH2 (staple 9-13) [Compound 16 (crosslinked polypeptide derived from human BIM BH3)] ?
A) 3.5

Q) Quick one: Kd for Ac-RWIAQALR[S5]IGN[S5]FNAYYARR-NH2 (staple 9-13) [Compound 15 (crosslinked polypeptide derived from human BIM BH3)] ?
A) 5.1

Q) Look at this binder and give its reported Kd. Ac-RWIAQQLR[S5]IGD[S5]FNAYYARR-NH2 (staple 9-13) [Compound 13 (crosslinked polypeptide derived from human BIM BH3)]
A) 3.8

Q) Quick check: Kd of Propionyl-RNI[Aib]RHL[Aib][S5]V[Aib]D[S5]AARSI-NH2 (staple 9-13) [Compound 9 (crosslinked polypeptide derived from human BID BH3)] ?
A) 2.9
